method_description: Metabolic stability test: liver microsomal stability assay
Type: in vitro ADME, mouse
measurement_context: male, pH 7.4; mouse liver microsomes 0.5 mg protein/mL, compound 1 µM, presence of NADPH; read-out: Mouse Hepatic Microsome CLh,int NADPH(+)
Protocol: Under the presence and absence of NADPH, a microsome solution prepared to a concentration of 0.5 mg protein/mL using 100 mM phosphate buffer (pH 7.4) with mouse liver microsomes (male, Corning Incorporated, USA) and the compound at a concentration of 1 µM were subjected to a metabolic reaction for 22 minutes, 44 minutes, or 66 minutes. […]
Starred links: 1 amine or outer side, 2 acyl side, 3 side chain; linkers in the order of their positions; H or OH if unused. Positions of bridges follow the written chain, without caps; N, C: chain ends. Non-standard residues stand in square brackets, D forms with d. Residues, ends and D or L forms follow the SMILES beside them. *: point of attachment. NMeF = CN[C@@H](Cc1ccccc1)C(=O)O; NMeI = CC[C@H](C)[C@H](NC)C(=O)O; NMeβAla = CN(CCC(=O)[*:2])[*:1]; NMeD = CN[C@@H](CC(=O)O)C(=O)O; NMeL = CN[C@@H](CC(C)C)C(=O)O; NMeV = CN[C@H](C(=O)O)C(C)C; NMeA = CN[C@@H](C)C(=O)O; Piperidide = C1CCN(*)CC1; Sar = CNCC(=O)O

- compound: "CC[C@H](C)[C@@H]1NC(=O)[C@H](CC(C)C)N(C)C(=O)CN(C)C(=O)C[C@@H](C(=O)N2CCCCC2)N(C)C(=O)CNC(=O)[C@H](C)N(C)C(=O)[C@H](C(C)C)N(C)C(=O)[C@H](C)N(C)C(=O)[C@H](Cc2ccccc2)N(C)C(=O)[C@H](CC(C)C)NC(=O)[C@H](Cc2ccccc2)N(C)C(=O)[C@H](C(C)C)NC(=O)[C@H](CC(C)C)N(C)C1=O [pd156] ([Sar][NMeL]I[NMeL]V[NMeF]L[NMeF][NMeA][NMeV][NMeA]G[NMeD]-Piperidide; lactam N-13)"
  microsomal CLint at 1 µM: "34.1 µL/min/mg"
- compound: "CC[C@H](C)[C@H]1C(=O)N[C@@H]([C@@H](C)O)C(=O)N(C)CC(=O)N(C)[C@@H](CC(C)C)C(=O)N[C@@H](CC(C)C)C(=O)N[C@H](C(=O)N2CCCCC2)CC(=O)N(C)[C@@H](C)C(=O)N[C@@H](CC(C)C)C(=O)N(C)[C@@H](CC(C)C)C(=O)N[C@@H](C(C)C)C(=O)N(C)CCC(=O)N(C)[C@@H](Cc2ccccc2)C(=O)N[C@@H](C)C(=O)N(C)[C@@H](Cc2ccccc2)C(=O)N1C [pd037] ([NMeA]L[NMeL]V[NMeβAla][NMeF]A[NMeF][NMeI]T[Sar][NMeL]LD-Piperidide; lactam N-14)"
  microsomal CLint at 1 µM: "18.3 µL/min/mg"

---

Quick reference: Caco2 Papp (10^-6 cm/sec) of the listed items.
Tested on: Caco-2 cells
method_description: Membrane permeability test using Caco-2 cells with preincubation
Type: in vitro ADME
measurement_context: Caco-2 cells, preincubation 20 to 24 hours; apical FaSSIF/HBSS 1% DMSO pH 6.0, basal HBSS 4% BSA pH 7.4; basal sample at 180 minutes
Positions of bridges follow the written chain, without caps; N, C: chain ends. Non-standard residues stand in square brackets, D forms with d. Residues, ends and D or L forms follow the SMILES beside them. *: point of attachment. NMeF = CN[C@@H](Cc1ccccc1)C(=O)O; NMeI = CC[C@H](C)[C@H](NC)C(=O)O; NMeD = CN[C@@H](CC(=O)O)C(=O)O; NMeL = CN[C@@H](CC(C)C)C(=O)O; NMeV = CN[C@H](C(=O)O)C(C)C; d(β3hA) = C[C@@H](N)CC(=O)O; NMeA = CN[C@@H](C)C(=O)O; Piperidide = C1CCN(*)CC1; βAla = NCCC(=O)O; Sar = CNCC(=O)O; tBu = CC(C)(C)*

- compound: "CC[C@H](C)[C@@H]1NC(=O)[C@H](CC(C)C)N(C)C(=O)[C@H](CC(C)C)NC(=O)[C@H](C)N(C)C(=O)C[C@@H](C)NC(=O)[C@H](CC(C)C)NC(=O)[C@H](CC(C)C)N(C)C(=O)CN(C)C(=O)[C@H](C(C)C)NC(=O)[C@H]([C@@H](C)CC)N(C)C(=O)[C@H](COC(C)(C)C)NC(=O)[C@H](CC(C)C)N(C)C(=O)CCNC(=O)[C@H](Cc2ccccc2)N(C)C1=O [pd007] (cyclo(I[NMeF][βAla][NMeL]S(tBu)[NMeI]V[Sar][NMeL]L[d(β3hA)][NMeA]L[NMeL]))"
  Caco2 Papp (10^-6 cm/sec): "0.11 10^-6 cm/sec"
- compound: "CC(C)C[C@@H]1NC(=O)[C@H](Cc2ccccc2)N(C)C(=O)[C@H](C)N(C)C(=O)[C@H](CC(C)C)N(C)C(=O)CN(C)C(=O)[C@H](C(C)C)N(C)C(=O)[C@H](CC(C)C)N(C)C(=O)[C@H](C(C)C)N(C)C(=O)[C@H](C(C)C)NC(=O)[C@H](CC(C)C)N(C)C(=O)[C@@H](C(C)C)NC(=O)C[C@@H](C(=O)N2CCCCC2)N(C)C(=O)[C@H](C)N(C)C1=O [pd157] ([dV][NMeL]V[NMeV][NMeL][NMeV][Sar][NMeL][NMeA][NMeF]L[NMeA][NMeD]-Piperidide; lactam N-13)"
  Caco2 Papp (10^-6 cm/sec): "1.42 10^-6 cm/sec"

---

method_description: Membrane permeability test using Caco-2 cells with preincubation
Format: in vitro ADME
measurement_context: Caco-2; preincubation 20 to 24 hours; Apical FaSSIF/HBSS pH 6.0, Basal HBSS 4% BSA pH 7.4; 180 minutes; read-out: Caco2 Papp
Starred links: 1 amine or outer side, 2 acyl side, 3 side chain; linkers in the order of their positions; H or OH if unused. Non-standard residues stand in square brackets, D forms with d. Residues, ends and D or L forms follow the SMILES beside them. *: point of attachment. NMedβ3hAla = C[C@H](CC(=O)[*:2])N(C)[*:1]; NMeF = CN[C@@H](Cc1ccccc1)C(=O)O; NMeI = CC[C@H](C)[C@H](NC)C(=O)O; hPhe = N[C@@H](CCc1ccccc1)C(=O)O; NMeβAla = CN(CCC(=O)[*:2])[*:1]; NMeL = CN[C@@H](CC(C)C)C(=O)O; Abu = CC[C@H](N)C(=O)O; Sar = CNCC(=O)O; tBu = CC(C)(C)*

- molecule: "CC[C@@H]1NC(=O)[C@H](CC(C)C)N(C)C(=O)[C@H](COC(C)(C)C)NC(=O)[C@H]([C@@H](C)CC)N(C)C(=O)[C@H](CCc2ccccc2)NC(=O)[C@H](Cc2ccccc2)N(C)C(=O)[C@H](C(C)C)NC(=O)[C@H](CC(C)C)N(C)C(=O)[C@H](CC(C)C)NC(=O)CCN(C)C(=O)C[C@@H](C)N(C)C(=O)CN(C)C(=O)[C@H](CC(C)C)N(C)C(=O)[C@@H]2CCCN2C1=O [pd065] (cyclo([Abu]P[NMeL][Sar][NMedβ3hAla][NMeβAla]L[NMeL]V[NMeF][hPhe][NMeI]S(tBu)[NMeL]))"
  Papp A→B / ×10⁻⁶ cm/s: 0.54

---

Test system: Caco-2 cells
method_description: Membrane permeability test using Caco-2 cells with preincubation
Type: in vitro ADME
measurement_context: Caco-2 cells, preincubation 20 to 24 hours; apical FaSSIF/HBSS 1% DMSO pH 6.0, basal HBSS 4% BSA pH 7.4; basal sample at 180 minutes
Starred links: 1 amine or outer side, 2 acyl side, 3 side chain; linkers in the order of their positions; H or OH if unused. Positions of bridges follow the written chain, without caps; N, C: chain ends. Non-standard residues stand in square brackets, D forms with d. Residues, ends and D or L forms follow the SMILES beside them. *: point of attachment. NMedβ3hAla = C[C@H](CC(=O)[*:2])N(C)[*:1]; NMeF = CN[C@@H](Cc1ccccc1)C(=O)O; NMeGABA = CN(CCCC(=O)[*:2])[*:1]; NMeT = CN[C@H](C(=O)O)[C@@H](C)O; NMeβAla = CN(CCC(=O)[*:2])[*:1]; NMeL = CN[C@@H](CC(C)C)C(=O)O; NMeV = CN[C@H](C(=O)O)C(C)C; d(β3hA) = C[C@@H](N)CC(=O)O; NMeAbu = CC[C@H](NC)C(=O)O; NMeA = CN[C@@H](C)C(=O)O; Piperidide = C1CCN(*)CC1; dNMeA = CN[C@H](C)C(=O)O; Abu = CC[C@H](N)C(=O)O; NBuGly = CCCCNCC(=O)O; Sar = CNCC(=O)O; tBu = CC(C)(C)*

- compound: "CC[C@H](C)[C@@H]1NC(=O)[C@H](CC(C)C)N(C)C(=O)CCCN(C)C(=O)C[C@@H](C)N(C)C(=O)[C@H](CC(C)C)NC(=O)[C@H](CC)N(C)C(=O)[C@H](C(C)C)N(C)C(=O)[C@H](C)N(C)C(=O)[C@H](CC(C)C)N(C)C(=O)[C@H](COC(C)(C)C)NC(=O)[C@H](Cc2ccccc2)N(C)C(=O)[C@H](Cc2ccccc2)N(C)C(=O)CN(C)C1=O [pd143] (cyclo(I[Sar][NMeF][NMeF]S(tBu)[NMeL][NMeA][NMeV][NMeAbu]L[NMedβ3hAla][NMeGABA][NMeL]))"
  Caco2 Papp (10^-6 cm/sec): "4.73 10^-6 cm/sec"
- compound: "CC[C@@H]1NC(=O)[C@H](C(C)C)N(C)C(=O)[C@H](C)N(C)C(=O)[C@H](C(C)C)N(C)C(=O)[C@H](CC)N(C)C(=O)[C@H](Cc2ccccc2)N(C)C(=O)[C@H]([C@@H](C)O)N(C)C(=O)CNC(=O)[C@H](CC(C)C)N(C)C(=O)[C@H](C(C)C)NC(=O)[C@H](COC(C)(C)C)NC(=O)[C@H](CC(C)C)N(C)C(=O)[C@@H](C(C)C)NC(=O)C[C@@H](C)N(C)C1=O [pd068] (cyclo([Abu][NMedβ3hAla][dV][NMeL]S(tBu)V[NMeL]G[NMeT][NMeF][NMeAbu][NMeV][NMeA][NMeV]))"
  Caco2 Papp (10^-6 cm/sec): "0.27 10^-6 cm/sec"
- compound: "CC[C@H]1C(=O)N[C@@H](COC(C)(C)C)C(=O)N(C)[C@@H](Cc2ccccc2)C(=O)N(C)[C@@H](C(C)C)C(=O)N[C@H](C)CC(=O)N(C)[C@H](C)C(=O)N(C)[C@@H](CC(C)C)C(=O)N(C)[C@@H](C(C)C)C(=O)N2CCC[C@H]2C(=O)N[C@@H](C(C)C)C(=O)N(C)[C@@H](Cc2ccccc2)C(=O)N[C@@H]([C@@H](C)O)C(=O)N(C)[C@@H](CC(C)C)C(=O)N(C)[C@@H](C)C(=O)N1C [pd058] (cyclo([NMeA][NMeAbu]S(tBu)[NMeF][NMeV][d(β3hA)][dNMeA][NMeL][NMeV]PV[NMeF]T[NMeL]))"
  Caco2 Papp (10^-6 cm/sec): "0.72 10^-6 cm/sec"
- compound: "CCCCN1CC(=O)N[C@@H]([C@@H](C)CC)C(=O)N(C)[C@@H](CC(C)C)C(=O)N[C@@H](C(C)C)C(=O)N[C@H](C(=O)N2CCCCC2)CC(=O)N(C)[C@@H](C)C(=O)N(C)[C@@H](CC(C)C)C(=O)N[C@@H]([C@@H](C)O)C(=O)N(C)[C@@H](Cc2ccccc2)C(=O)N[C@@H](CC)C(=O)N(C)[C@@H](Cc2ccccc2)C(=O)N[C@@H](C)C(=O)N(C)CCC(=O)N[C@@H](CC(C)C)C1=O [pd026] ([NMeA][NMeL]T[NMeF][Abu][NMeF]A[NMeβAla]L[NBuGly]I[NMeL]VD-Piperidide; lactam N-14)"
  Caco2 Papp (10^-6 cm/sec): "0.58 10^-6 cm/sec"
